Item-by-item account of soluble fraction (log2)
- EXPERIMENTAL PROTOCOL: soluble fraction after stress (log2 fold change); higher = more stays soluble; pooled small domains, quantitative proteomics;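 note: 20 min heating vs room temperature control held 20 min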
- DETAILS: stress: 75 degC

RESIDUE SEQUENCE | soluble fraction (log2)
HMLQKEVHQQIQQALRALPYHQRTAIVLYYYEGMSVKEIAQATGSMQGTVQSRLFFARKKLRPILESILKK | -1.15
HMKGSIMIETILKELKKNNKGFNFLLEKFDISEDELMKIINDLIHDKKVFLNSNNKYEIVSD | -0.72
HMTSIISLAKARSIALQKVPGATSKNIHLSLDDEDDKQVYEGEIKYKQMEYVFEIDAKTGTFLKWTSERD | -1.92
HMESDRVAHVVAPGETLFSISGKYGIGMGELVAANPVLESRPPRTGDTLLIRLPENPLPAETDAETLS | 0.643
HMTRQKEAILALLTDSRGEALSASELLARLTRSGSSIGRTTVYRLLSQLVDDGVVRAWRDASRGITLYELS | -1.1
HMYHIYPVADNDTPKLSADRLEYSLSNALLTNKLLNIDEIKKIYNDVILDKDEDGTLELSFKS | 0.127
HMSGKMTVPNVVGKTETEAKSALSAKGFTNVRTETVDSTEAAGTVVKQSLDADSVQDPKTEIVLSVSNG | 0.946
HMKPFSLESYKAFVVKRLGLFPETSSAQMHDWLKEEYPDFPLITPRTVYNFVMKIRQDYGIAKV | -3.43
HMQELVPGKVFEGTVTEMKNGQVTLGLSDGKTISARMEQGVSLAKGQPMLFEVKSNTGEQIAIRPVVL | 0.263
HMTVGEKIQKYRKDLDLSQEELGQKLLVSRQTISLWEKDQTVPTIDNLIRLREIFGVSVDEILGF | -0.818
HMNRIGERIKRKRELRNLNLGELAEKVGISASALSQIEKSKSFPSVITLKSIAEQLRTTVGELIGEN | -0.191
HMTYSSESVRYRIKSLIDNETIDEILSDDKIVNILKSQGIDVARRTVAKYREAMGLASSIQRRREKKSA | -0.707
HMAGGVFELTGKVTADAKAGDLVYVKAATGAGTKPVVTTVKTGADVIIGWLKEPVSSASVDQKMQVVLA | 0.267
HMNNQIFGLKFRQLRKQQHITLAKAAAGITSRQSLGNWETGKGELAFEKVLLLLKKINVQPIDFLESSIS | -3.9
HMPLITDIKIQVKNTEKVSLFVDGKYSFSLTISQLAEHKILKTNQEISAKQVAEFKKLSNLTNLYIRIVG | -0.305
HMTRAEVQALLEKQAKDFEVEVVHRGWKKTVQTPEFAGWYSQQPAEIKALAESDDPAVAIRMLDLFSGTK | -0.0943
HMGNTTEVLVATQDVKANTKIKESMFTTERVDTASLPDNYLSADSAKDVVGYYTYIGFTKGSVISKSNIAT | 0.625

---

- EXPERIMENTAL PROTOCOL: soluble fraction after stress (log2 fold change); higher = more stays soluble; pooled small domains, quantitative proteomics
- DETAILS: stress: 75 degC

RESIDUE SEQUENCE | soluble fraction (log2)
HMTNPPTPADTLFNTVRGVLQSILKSPMKDTEVASALNVSKAQARSWLQRLSDEGLIEKRKNPTAYVL | -0.592
HMPVEHVWHIAENGQTSGPYSKARMGRMAQEGQLTRDTHVWTPGQDGWMRAGDVTELAQLFT | 0.0383
HMKLIPLTDMRGQLRSGAPLPWGVRDAQGNLLLGKGHVIASDDMLEALLARGMFVDAEEAKAARG | 0.0132
HMTKLLSALQADKFAKKLANDTNFGSNFARMGESAMDFTNRLVEELQRDEGKVANYMPYLTKLGF | 0.204

---

- EXPERIMENTAL PROTOCOL: soluble fraction after stress (log2 fold change); higher = more stays soluble; pooled small domains, quantitative proteomics
- DETAILS: stress: 75 degC

RESIDUE SEQUENCE | soluble fraction (log2)
HMGLGQRIKARREALGLSQARLGEAVGVSLQAVSNWERDEYLPDTARLPLIARALGLTPGQLME | -0.182
HMDEALLRATLLDVLVKHHPKIGDKLDVVFALAKAWVSSGSDDDFEVLEKYMERLKPDEALMLASGFSNML | -0.886
HMTGDIIKQERKKKNLTQIELAKKVGISRNALINYEAGTRIPPISVQLKLADVLGIDILDLK | -1.64
HMDAEELNSKAKDEFTWLEDDESETNLEYRKMVSSEDMAIVAKVAPALAAKLKYQLAHAATNMV | 0.149

---

Item-by-item account of soluble fraction (log2)
- EXPERIMENTAL PROTOCOL: soluble fraction after stress (log2 fold change); higher = more stays soluble; pooled small domains, quantitative proteomics
- DETAILS: stress: 75 degC
VALUE TYPE: soluble fraction (log2)

RESIDUE SEQUENCE | VALUE TYPE | NUMERIC READOUT
HMGFSLEQFGTDPDLKKIVENAFERIITASEGRIFKSDFSSNNSALPLEIFSFLIAVILLKLSGMN | soluble fraction (log2) | -0.157
HMKGLDAAVVDLFKSKGASIVFAGNRLSLSGEVADQATKDELLAKAKAILASLGASVSLDDKLMVKGAKAS | soluble fraction (log2) | 0.0761
HMFAQDQLFKKDNSKVDVKILEINTTEIKYKLFTYQDGPTITVAKKDVALIIYQNGVHEVIT | soluble fraction (log2) | -2.53
HMNTEVDKVLLRSGEAYFGEVLLRNDELVMMKTQDGARFQFPVSEIKSIEKVSVADALRHINS | soluble fraction (log2) | 0.263
HMSKQKRIKYFLSILNIKSIKQFRKKDLDYFYQKRFIEIQKSSKDKKLVSNQLIELNAAKEYLDEIDFEN | soluble fraction (log2) | -3.78
HMSLPKIVVPTDVTVSQLAKYLEVDAISIIKQLFGMGVVASLNQRLEDEIIQLIGNEFGKEIIFSE | soluble fraction (log2) | 0.162
HMTEDADIERRLTGILASAGWYRSLAVEVKEGIVYLDGATASGNHRDWAGSLAAKTEGVVAVVNRIEVQP | soluble fraction (log2) | -1.86
HMIDAAHLEKAILSLPEGARAVFVLIETEGFAHREVAELLGISEGTSKSQLNYAKKRLREILV | soluble fraction (log2) | -0.266
HMVLANLQAAEQGDLGIKEGEKLTILQTRPDGWWTARNANGETGLVPK | soluble fraction (log2) | 0.186
HMAKRDEIEAELPRFVATITQELAASRDVLSMIEHYKQNSGPVFSAELDVLTADMRSGSYEAALTRFEARF | soluble fraction (log2) | 0.188
HMLVMTDNVIKAINDLLNYEAAAGIKKKQRYTAYQIYKELSEQGVYHGSRRRMEEVVSKLRVERNQI | soluble fraction (log2) | -2.79
HMEKKKVPEVAGQDEAAARNVMTNSGFVVDVEQKEDDNVPAGKVITTAPAGGVEVVEGTKIILYVSKGSN | soluble fraction (log2) | -0.052
HMAHYYVRNGYYYYQRRIPLDLRKFYSGANIKASLKTKDPAIAALFVAKFDRQYDAEFAQRRLNPD | soluble fraction (log2) | -0.533
HMKNYYRILGLNIDAEYEEIKAAYRILAQRHHPDKGGAAAEFRLIQEAYDILSNPLTKRNYDADLLATLN | soluble fraction (log2) | -2.65
HMIPEKEISYMMPDGFMPKELKIIHITESGRKQIYSAAHKPLDLVNVKAPFVPNTKVQIYINDVPIEELKI | soluble fraction (log2) | -1.01
HMSGRPPTYTAEERSAVIAAALSRPADLGLPFASWTLDRLVAYLGEKGIGMKRSRMSEVLLAEGLKW | soluble fraction (log2) | -2.02
HMQSLAAKINGYIVAQRTSIAAIAKEIGYSRVTVSRYLAGKYDSDPTGIEAKLAAFLAGQTGEE | soluble fraction (log2) | -3.99

---

- EXPERIMENTAL PROTOCOL: soluble fraction after stress (log2 fold change); higher = more stays soluble; pooled small domains, quantitative proteomics
- DETAILS: stress: 75 degC

RESIDUE SEQUENCE | soluble fraction (log2)
HMEVLSKRGSTGTEVINIQKKLKNWGYYTGSVDGIYGKLTEEAVRYFQRTNGLTVDGIAGKNTLAAMGIA | -0.619
HMVLQHHTATKALSYHTSASASAAVKGSFARGDSVQVVQGGSQTADGAKWHKVKVGSSYYYAAAEHLTP | ≥ 1.04
HMDNEIEQIVEDLNLTLSSLKYTKNQIESILPLIIKEIDDFKKKEKNISFENLLKLAMNHLDND | -0.38
HMRITTKNYFKAISEVGFENLPEVLKKSHLVIEEKTNKGNDWGIYENDAEAKKVFDLAFDKLEEFIDRKED | 0.461
HMIDQNEDLLSGYIDEVLSQNPDKVNEYLKGKSGLIGFFMGQIKQKSATALDAALLKSQLETALEKLRIK | -0.14
HMRTIPDALIGRPYESVETAIVLEGLQAKRTEVFHPTIRPGTVIRLEPTSGSELLRDGVVEIFVSQGPETT | 0.157
HMTQTAVFSKGEQEYYFPLSKVLFFETDGNTINVHTADDIYETRYRLYELEEMLPGSFMRISKSAVVNTNR | 0.00772
HMGNKWKPIILYLLSNGSMRFGMLNALIPTISKKVLTNQLKELENDGLLLRQSFAEIPPRVEYSLTEKA | -2.31
HMALMLGGLIVYLNTTAPRDDIDLIELSKDTKAMAAFGNKLASPDYNGKQFALDWHELSRDEIMSKYFS | -2.03
HMKIVQDIAFSDFLNEVEKDNVLDVNIKGDLINGNLADGRKFKTYTPYDPNLIEKLSNKNVTINVEPYN | 0.512
HMLPELQPGQTFSARIQQALPDNTYRALVAGKQLTLQLPEGAKAGDELELVVLDRSARVIIARQVD | -0.691
HMVSQKPKERELWFREQLELAGLRLDPHAISAINETLGNDTGRFPGIIDTLLSTYGAGKKLSYDDVVMFL | -0.638
HMPNFDPSYILDFGDVIQLQLVGQKNQILEIPILRDGSVNLPDIGKIFLSGMSLEEATKIIKDTYSA | -0.931
HMFEPLTDREREVLQALADGLSDKEIAERLYISPATVRTHITAILGKLDANSRLQAVVVAARHNLVTL | -0.478
HMSSKSDQLYLQLRRRISAMKDGEPFPTVRQLMTEYQVSQSTVTPAINQLKEKGLIEAYVGRGSFVSKK | -0.657
HMIVSVPNVRGMGESKAAAALQNRGLLVSIDYESSTSASQGEVIRQSISPGTEVTKGSSITIIIAVSPN | -1.56

Data provenance: the domain aggregation screens of Martell et al. (2025)
